biological target: T1, full length human Shh expressed on the cell surface (human, UniProt Q15465 24-462); experiment: flow cytometry, exhaust hybridoma supernatant 1:10, 293T cells transiently expressing human Shh
T1 construct: whole, on cells; also called native human Shh; Shh-FL
property name: X Geo Mean (Transients)
Lab note: jot down the number only; don't add units.

Worked examples, 2 binders total:
3H8 (antibody, V domains shown, fully human XenoMouse hybridoma antibody; also called MAb 3H8) VH: QVQLVESGGGVVQPGRSLRLSCAASGFTFSTYGMHWVRQAPGKGLEWVAVIWYDGSNKYYADSVKGRFTISRDNSKNTLNLQMNSLRAEDTAVYYCARDLYYYGSGSPFDYWGQGTLVTVSS VL: EIVMTQSPATLSVSPGERATLSCRASQSVSSNLAWYQQKPGQAPRLLIFGVSIRATGIPARFSGSGSGTEFTLTISSLQSEDFAVYYCQQYNNWPRPGFGGGTKVEIK ... 148
1C8 (antibody, V domains shown, fully human XenoMouse hybridoma antibody; tested as hybridoma supernatant and as purified antibody; also called MAb 1C8) VH: EVQLVESGGGLIQPGGSLRLSCAVSGFTVSSNCMNWVRQAPGKGLEWVSVIYSGGKTAYADSVKGRFTISRDNSKNTLCLQMNSLRAEDTAVYYCARDSSMVVGLGYFDLWGRGTLVTVSS VL: SYELTQPPSVSVSPGLTASITCSGDKLGYKYASWYQQKPGQSPVLVIYQDIKRPSGIPERFSGSNSGNTATLTISGTQAMDEADYYCQAWDSSTVVFGGGTKLTVL ... 118

From here, focus on the item given below.
Endpoint output: X Geo Mean (Transients) of 1G12 (antibody, V domains shown, fully human XenoMouse hybridoma antibody; tested as hybridoma supernatant and as purified antibody; also called MAb 1G12) VH: QVQLVESGGGVVQPGRSLRLSCAASGFTFSTYGMHWVRQAPGKGLEWVAVIWYDGSNKYYADSVNGRFTISRDNSKNTLYLQMNSLRGEDTAVYYCARDLYYYGSGSPFDYWGQGTLVTVSS VL: EIVMTQSPATLSVSPGERVTLSCRASQSVSSNLAWYQQKPGQAPRLLIYGVSIRATGIPARFSGSGSGTEFTLTISSLQSEDFAVYYCQQYDNWPRPGFGGGTKVEIK . Value?
8.3

Ref: patent US20120328625A1
